Target: OCT1 (Homo sapiens)
Sequence (O15245 whole entry): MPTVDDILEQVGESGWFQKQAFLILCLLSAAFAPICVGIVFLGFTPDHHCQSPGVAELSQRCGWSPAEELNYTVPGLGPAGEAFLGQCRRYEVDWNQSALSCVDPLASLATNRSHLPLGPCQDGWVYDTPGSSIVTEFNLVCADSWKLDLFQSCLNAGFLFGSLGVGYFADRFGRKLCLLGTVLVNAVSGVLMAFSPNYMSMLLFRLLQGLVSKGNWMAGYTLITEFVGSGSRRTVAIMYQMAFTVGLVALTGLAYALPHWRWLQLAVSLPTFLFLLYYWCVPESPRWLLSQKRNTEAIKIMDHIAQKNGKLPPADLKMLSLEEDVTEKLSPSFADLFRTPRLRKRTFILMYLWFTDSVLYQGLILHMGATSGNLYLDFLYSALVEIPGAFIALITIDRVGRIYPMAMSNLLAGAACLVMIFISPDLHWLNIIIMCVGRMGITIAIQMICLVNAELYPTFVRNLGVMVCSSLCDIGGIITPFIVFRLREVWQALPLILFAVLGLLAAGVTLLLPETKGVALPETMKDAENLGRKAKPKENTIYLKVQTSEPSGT
Assay: Inhibition of model substrate uptake in OCT1-overexpressing HEK293 cells
Type: cell-based
Set-up: expressed in transfected cells; host or cells: HEK293
Conditions: human, OCT1-overexpressing HEK293 cells, pH 7.4, probe sumatriptan (2 μM), OCT1; 20 μM inhibitor, 2 μM sumatriptan, 5 min; read-out: Sumatriptan inhibition [%]
Procedure: Koepsell and Gorbulev (University of Würzburg, Germany). Fluorescence quantification was performed in technical duplicates.
Property: inhibition at 5 min, 20 μM; scope: individual compounds
ASSAY_READOUT: inhibition at 5 min, 20 μM (%)

INSERT INTO measurements (compound, endpoint_value) VALUES
  ('CC(C)Cc1ccc([C@@H](C)C(=O)O)cc1 [(R)-Ibuprofen]', -7.2),
  ('COc1ccccc1OCCNC[C@@H](O)COc1cccc2[nH]c3ccccc3c12 [(R)-Carvedilol]', 96.6),
  ('CC(C)(C)NC[C@@H](O)COc1nsnc1N1CCOCC1 [(R)-Timolol]', 55),
  ('CNCC[C@H](Oc1cccc2ccccc12)c1cccs1 [(S)-Duloxetine]', 88.5),
  ('CCC(CO)NCCNC(CC)CO [(R,R)-Ethambutol]', 17.9);
